Target: muscarinic receptor (urinary bladder)
Assay: Muscarinic receptor binding, (−)3H-QNB competition, urinary bladder homogenate
Conditions: guinea pig urinary bladder, 2 nM (−)3H-QNB, 25° C., 60 minutes
Counter-ions that a name gives are not always drawn.
Metric name: Ki (nM)

- Cc1ccc(O)c(C(CCN(C(C)C)C(C)C)c2ccccc2)c1 (single isomer, unassigned; (+)) [(A), hydrochloride]: 2.7
- CC(C)N(CCC(c1ccccc1O)c1cc(Cl)ccc1O)C(C)C (single isomer, unassigned; (+)) [(C), hydrochloride]: 2.5
- CC(C)N(CCC(c1ccccc1)c1cc(CO)ccc1O)C(C)C (stereo not shown) [(D)]: 4.5
- CC(C)N(CCC(c1ccccc1O)c1ccccc1O)C(C)C [(B), hydrochloride]: 10.2

Reference source: patent USRE40851E1
